assay.text: Pharmacokinetics in rats, single dose 0.3 mg/kg IV
Assay type: in vivo
recorded.conditions: rat, plasma, 0.3 mg/kg; rats, IV
*1 amine or outer side, *2 acyl side, *3 side chain or, on linkers, in order; H or OH if unused. Where a SMILES comes first, the peptide text is derived from it. Bridges are numbered along the chain shown (N, C = ends). Roman numbers before positions name the chains, in order. [ ]: non-standard residue; d: D form. Actinocin(9to1) = Cc1c2oc3c(C)ccc(C(=O)[*:1])c3nc-2c(C(=O)[*:2])c(N)c1=O; NMeV = CN[CH](C(=O)O)C(C)C; Sar = CNCC(=O)O

{"molecule": "Cc1c2oc3c(C)ccc(C(=O)NC4C(=O)NC(C(C)C)C(=O)N5CCCC5C(=O)N(C)CC(=O)N(C)C(C(C)C)C(=O)OC4C)c3nc-2c(C(=O)NC2C(=O)NC(C(C)C)C(=O)N3CCCC3C(=O)N(C)CC(=O)N(C)C(C(C)C)C(=O)OC2C)c(N)c1=O (stereo not shown) [dactinomycin] (I: TVP[Sar][NMeV] / II: TVP[Sar][NMeV]; ester I:1-I:C, II:1-II:C; linker I:N-II:N via Actinocin(9to1); configuration not given here)", "Cmax (ng/mL)": 60}
